System: PPARg:RXRa 30nM:10nM, anti-RXR (NR concentration 30 nM, RXRa partner concentration 10 nM)
Experiment: PBM binding z-score (relative to random genomic background probes); higher = stronger binding; sequences stand for … in GC…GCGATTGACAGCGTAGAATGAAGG
Property: PBM binding z-score

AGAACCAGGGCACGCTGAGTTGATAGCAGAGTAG
-0.116

Give PBM binding z-score for each listed item.
1. CCTCGGAGGACAGAAGGTTAGAGCTGTCCGCTTT
2. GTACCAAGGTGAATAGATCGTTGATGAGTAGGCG
3. GCAGACAGCTGAAACGCAGGTAACTCAGGGTGGC
4. TAGACAGGGTCAAAGGCCAGAGTACGAATGTCGA

Solution:
1. -0.944
2. 0.296
3. -0.695
4. 4.3

For the 3 sequences below, give their PBM binding z-score values.
1. CGCCCAAGGTCAAGGTCAGTGAAAGAGACTCGAA
2. CCTACTGGGCCATGAGGTCATTGATATCAACGTT
3. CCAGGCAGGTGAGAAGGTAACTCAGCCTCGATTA

Solution:
1: 2.41; 2: 2.55; 3: -0.448
